experiment: Metabolic stability in human liver microsomes; assay type: in vitro ADME; conditions: LM Clint (intrinsic clearance); 1 μM test compound, 0.5 mg protein/mL microsome, 37° C., up to 60 min
ATTRIBUTE_MEASURED: Human Liver Microsome (μM/min/mg)

CC(C)n1cnc(-c2ccc(F)cc2)c1-c1nc(C(=O)Nc2ccc(N3CCN(C)CC3)nc2)cs1 [Compound 8]	+ (>100 μM/min/mg as +)
CC(C)n1cnc(-c2ccc(F)cc2)c1-c1nc(C(=O)Nc2ccc(C3COC3)cc2F)cs1 [Compound 59]	+ (>100 μM/min/mg as +)

###

Assay system TNIK kinase [amino acid sequence (1-367), Invitrogen] (Homo sapiens); read-out recorded as IC50.

CC(C)n1cnc(-c2ccc(F)cc2)c1-c1nc(C(=O)Nc2ccc(C3CCN(C)CC3)cn2)cs1	1 to 12 nM

Ask: Any idea what IC50 was measured for [2H]C([2H])([2H])N1CC(c2ccc(NC(=O)c3csc(-c4c(-c5ccc(F)c(Cl)c5)ncn4C(C)C)n3)nc2)C1 ?
Reply: 1 to 12 nM

Ask: Follow-up entry: CC(C)c1onc(-c2ccc(F)cc2)c1-c1nc(C(=O)Nc2ccc(N3CC4CC(C3)N4C)cc2F)cs1
Reply: 1 to 12 nM

Ask: Follow-up entry: CN1CCN(c2ccc(NC(=O)c3c[nH]c(-c4c(-c5ccc(F)cc5)ncn4C4CCC4)n3)cc2)CC1
Reply: 12 to 150 nM

Ask: Follow-up entry: O=C(Nc1ccc(N2CCCC2)cn1)c1c[nH]c(-c2c(-c3ccc(F)cc3)ncn2C2CC(F)(F)C2)n1
Reply: 12 to 150 nM

Ask: Follow-up entry: CC(C)n1cnc(-c2ccc(F)cc2)c1-c1nc(C(=O)Nc2ccc(N3C[C@H]4CC[C@@H](C3)N4C)nc2)c[nH]1
Reply: 1 to 12 nM

Ask: Follow-up entry: O=C(Nc1ccc(N2CCC2)cn1)c1coc(-c2c(-c3ccc(F)cc3)ncn2C2CC(F)(F)C2)n1
Reply: > 150 nM

Ask: Follow-up entry: CC(C)n1cnc(-c2ccc(F)cc2)c1-c1nc(C(=O)Nc2ccc(N3C[C@H]4CC[C@@H](C3)N4C)cn2)cs1
Reply: 1 to 12 nM

Ask: Follow-up entry: O=C(Nc1ccc(N2CCC2)cn1)c1csc(-c2c(-c3ccc(F)cc3)ncn2C2COC2)n1
Reply: 1 to 12 nM

Ask: Follow-up entry: CC(C)c1onc(-c2ccc(F)cc2)c1-c1nc(C(=O)Nc2ccc(C3COC3)cn2)cs1
Reply: 1 to 12 nM

###

target: TNIK kinase [amino acid sequence (1-367), Invitrogen] (Homo sapiens, UniProt Q9UKE5)
Sequence (Q9UKE5 1-367): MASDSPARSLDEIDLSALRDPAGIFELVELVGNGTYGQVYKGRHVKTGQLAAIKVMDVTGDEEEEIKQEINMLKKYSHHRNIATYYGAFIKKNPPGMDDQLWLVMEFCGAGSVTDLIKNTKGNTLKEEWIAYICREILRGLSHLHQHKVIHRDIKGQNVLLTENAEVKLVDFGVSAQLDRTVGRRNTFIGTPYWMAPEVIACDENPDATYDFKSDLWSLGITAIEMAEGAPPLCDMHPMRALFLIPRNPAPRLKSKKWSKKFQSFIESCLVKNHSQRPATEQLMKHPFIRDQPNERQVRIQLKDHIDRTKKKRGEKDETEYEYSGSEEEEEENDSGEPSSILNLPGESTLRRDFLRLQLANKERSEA
pIC50: −log10 of the molar value.
ATTRIBUTE_MEASURED: pIC50

Please review the following examples before continuing.
O=C(Nc1ccc(C2COC2)cn1)c1coc(-c2c(-c3ccc(F)cc3)ncn2C2COC2)n1	6.82 to 7.92
[2H]C([2H])([2H])N1CC(c2ccc(NC(=O)c3c[nH]c(-c4c(-c5ccc(F)cc5)ncn4C(C)C)n3)nc2)C1	6.82 to 7.92
O=C(Nc1ccc(C2COC2)cn1)c1coc(-c2c(-c3ccc(F)cc3)ncn2C2CC(F)(F)C2)n1	< 6.82
CC(C)c1onc(-c2ccc(F)cc2)c1-c1nc(C(=O)Nc2ccc(N3CC4CC(C3)N4C)cn2)cs1	7.92 to 9.00

Ask: Any idea what pIC50 was measured for CN1CCN(c2ccc(NC(=O)c3csc(-c4c(-c5ccc(F)cc5)nc5n4CCOC5)n3)nc2)CC1 ?
Reply: 7.92 to 9.00

Ask: Follow-up entry: Cc1cc(NC(=O)c2cnc(-c3c(-c4ccc(F)cc4)ncn3C(C)C)[nH]2)ccc1N1CCN(C)CC1
Reply: 6.82 to 7.92

Ask: Follow-up entry: O=C(Nc1ccc(C2COC2)cn1)c1csc(-c2c(-c3ccc(F)cc3)ncn2C2COC2)n1
Reply: 7.92 to 9.00

Ask: Follow-up entry: CN1C2CC1CN(c1ccc(NC(=O)c3c[nH]c(-c4c(-c5ccc(F)cc5)ncn4C4CCC4)n3)nc1)C2
Reply: 7.92 to 9.00
